Catalogue of inhibition readings, one per entry.
molecular target: L-lactate dehydrogenase (Plasmodium falciparum (isolate CDC / Honduras)) (UniProt Q27743); test: PfLDH activity inhibition – cell lysate, 3D7 strain, counter-screen for P. falciparum growth inhibition project (AID 2304);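 note: 0% = vehicle and 100% = reference inhibitor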; conditions: P. falciparum 3D7 crude extract, LDH APAD/NBT absorbance; at 2 µM; stronger effect = higher value
Sequence (Q27743 whole entry, looked up): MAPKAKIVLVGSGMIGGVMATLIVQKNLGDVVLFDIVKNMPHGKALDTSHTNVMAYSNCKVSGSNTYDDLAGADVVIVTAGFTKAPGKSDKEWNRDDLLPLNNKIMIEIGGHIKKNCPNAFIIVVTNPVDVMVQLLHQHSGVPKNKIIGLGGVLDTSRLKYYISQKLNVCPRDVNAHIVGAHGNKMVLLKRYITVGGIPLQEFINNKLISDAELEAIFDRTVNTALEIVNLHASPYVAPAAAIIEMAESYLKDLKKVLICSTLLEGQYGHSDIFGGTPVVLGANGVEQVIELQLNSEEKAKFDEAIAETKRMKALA
Give the number; % is assumed, so skip it.

Answered examples (5):
1) COc1ccccc1CCNc1nc(C)cc(N[C@@H](CC(C)C)C(=O)NCCc2ccccc2)n1 ... -2
2) O=C(C=Cc1ccc(Cl)c(Cl)c1)NCCCCCN1CCC(CCCNS(=O)(=O)c2cccc(C(F)(F)F)c2)CC1 ... 3
3) O=[N+]([O-])c1cccc(CNCC2CCN(Cc3ccc4ccccc4c3)CC2)c1 ... 4
4) COc1ccc(CNc2ccc3nc(N)nc(N)c3c2)cc1 ... -4
5) CCN(CC)S(=O)(=O)c1ccc(Cl)c(C(=O)Nc2ccc3nc(C)sc3c2)c1 ... -4

Exam item: Report inhibition from L-lactate dehydrogenase (Plasmodium falciparum (isolate CDC / Honduras)) (UniProt Q27743) testing of OC(CNc1cccc(Cl)c1)Cn1c2ccc(Cl)cc2c2cc(Cl)ccc21 (stereo unspecified)
Marked response: 6

Exam item: Report inhibition from L-lactate dehydrogenase (Plasmodium falciparum (isolate CDC / Honduras)) (UniProt Q27743) testing of COc1cccc(-c2cc(C(=O)Nc3ccc4nc(-c5ccccc5)[nH]c4c3)[nH]n2)c1
Marked response: 2

Exam item: Report inhibition from L-lactate dehydrogenase (Plasmodium falciparum (isolate CDC / Honduras)) (UniProt Q27743) testing of CN1CCCN(c2ccnc3cc4c(cc23)N(C(=O)c2ccc(Cl)c(Cl)c2)CC4)CC1
Marked response: 2

* * *

biological target: L-lactate dehydrogenase (Plasmodium falciparum (isolate CDC / Honduras)) (UniProt Q27743); experiment: PfLDH activity inhibition – cell lysate, 3D7 strain, counter-screen for P. falciparum growth inhibition project (AID 2304);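 note: 0% = vehicle and 100% = reference inhibitor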; settings: P. falciparum 3D7 crude extract, LDH APAD/NBT absorbance; at 2 µM; stronger effect = higher value
attributeMeasured: inhibition (%)
Give the number; % is assumed, so skip it.

Answered examples (5):
1. Cc1cccc(CNc2nc(C)cc(N[C@@H](CC(C)C)C(=O)NCc3cccc(F)c3)n2)c1 ... -3
2. COc1cc(Cl)c(C)cc1-n1cc(C(=O)c2cc(Br)ccc2O)cc(C#N)c1=O ... -3
3. OC1(Cc2ccccc2)CCN(Cc2cccc(-c3c[nH]c4nc(NC5CCCC5)ncc34)c2)CC1 ... 4
4. COc1ccc2ncc(F)c(CCN3C[C@H](CNCc4ccc5c(c4)OCCO5)[C@H](O)C3)c2n1 ... 7
5. COc1cc2c(cc1O)[C@@H]1[C@H](O)[C@@H](O)C=C3CCN(C2)[C@H]31 ... 3

Exam item: Return value of inhibition for input CCCCOc1ccc(CNCCCCCCNCc2ccc(OCCCC)c3ccccc23)c2ccccc12 , no commentary.
Marked response: 2

Exam item: Return value of inhibition for input COc1ccc(Nc2ncc3c(-c4cccc(NC(=O)CC(C)C)c4)c[nH]c3n2)cc1OC , no commentary.
Marked response: 5

Exam item: Return value of inhibition for input C[C@H](NC(=O)c1c(OC2CN(C(c3ccccc3)c3ccccc3)C2)c(-c2ccccc2)nc2ccccc12)C1CCCCC1 , no commentary.
Marked response: 2

Exam item: Return value of inhibition for input O=C(N[C@@H](CC1CCCCC1)C(=O)NC1CCCCCC1)c1ccc(O)c(-c2ccc(Cl)c(Cl)c2)c1 , no commentary.
Marked response: -2

* * *

target: L-lactate dehydrogenase (Plasmodium falciparum (isolate CDC / Honduras)); test: PfLDH activity inhibition – cell lysate, 3D7 strain, counter-screen for P. falciparum growth inhibition project (AID 2304);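 note: 0% = vehicle and 100% = reference inhibitor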; conditions: P. falciparum 3D7 crude extract, LDH APAD/NBT absorbance; at 2 µM; stronger effect = higher value
attributeMeasured: inhibition (%)
Give the number; % is assumed, so skip it.

Answered examples (5):
1. CCCOc1cc(OCCC)cc(-c2cc(=O)c3ccccc3[nH]2)c1 ... -2
2. O=C(C=Cc1ccc(Cl)c(Cl)c1)NCCCCCN1CCC(c2[nH]nc3ccccc23)CC1 ... 0
3. OCC1CCCCN1Cc1cccc(-c2cccc(-c3nc4ccccc4[nH]3)c2)c1 (stereo not given) ... 0
4. Cc1cc(Nc2ccc(Cl)c(Cl)c2)n2nc(C)nc2n1 ... -4
5. CCOCCCNc1nc2cc(OC)c(OC)cc2c2nc(-c3ccccc3)nn12 ... -3

Exam item: Return value of inhibition for input O=C(Nc1cccc(-c2nn3ncccc3c2-c2ccnc(Nc3cccnc3)n2)c1)c1c(F)cccc1F , no commentary.
Marked response: -2

Exam item: Return value of inhibition for input CCOc1cc(C(=O)NCCN(CC)c2cccc(C)c2)ccc1-c1nc2ccc(Cl)cc2[nH]1 , no commentary.
Marked response: 0

Exam item: Return value of inhibition for input COc1ccc2nccc([C@@H](O)CN3CCC(NC(=O)/C=C/c4ccc5ccccc5n4)CC3)c2c1 , no commentary.
Marked response: 1

Exam item: Return value of inhibition for input Cc1cc(C)c2cc(CNCCCNc3nc4ccccc4[nH]3)[nH]c2c1 , no commentary.
Marked response: 3

Exam item: Return value of inhibition for input CC(C)CCN1CCC(Oc2ccc(NC(=O)c3ccsc3)cc2Cl)CC1 , no commentary.
Marked response: 0

Exam item: Return value of inhibition for input O=C(Cc1ccc(-n2cnnn2)cc1)N(Cc1cncn1Cc1cccc(C(F)(F)F)c1)CC1CC1 , no commentary.
Marked response: 0

Exam item: Return value of inhibition for input c1cncc(CCNCc2cccc(-c3ccc(-c4nc5ccccc5[nH]4)s3)c2)c1 , no commentary.
Marked response: -1

Exam item: Return value of inhibition for input CCCc1ccc(NC(=O)c2ccc(CN3CCCN(Cc4ccc(OC)cc4)CC3)cc2)cc1 , no commentary.
Marked response: 0

Exam item: Return value of inhibition for input CCC(CC(C)C(=O)O)=C(c1ccccc1)c1ccccc1 (stereo not given) , no commentary.
Marked response: 5

Exam item: Return value of inhibition for input Oc1ccc(-c2cc(-c3ccc(O)cc3)nc(-c3ccccc3)n2)cc1 , no commentary.
Marked response: -1

Exam item: Return value of inhibition for input C[C@@H](N=C(Nc1ccc(C#N)cc1O)Nc1ccccc1Cl)c1ccc(Br)cc1 , no commentary.
Marked response: 0

Exam item: Return value of inhibition for input NC(N)=Nc1nc(-c2cccc(NC(=O)NCCc3c[nH]c4ccc(OCc5ccccc5)cc34)c2)cs1 , no commentary.
Marked response: 0

Exam item: Return value of inhibition for input CN1CCCC1CCNc1ncc2c(-c3ccc(NC(=O)Nc4cc(C(F)(F)F)ccc4F)cc3)nn(C)c2n1 (stereo not given) , no commentary.
Marked response: 0

Exam item: Return value of inhibition for input CCCN(CCC)CC(O)COc1ccccc1C(=O)Nc1ccccc1 (stereo not given) , no commentary.
Marked response: -2

Exam item: Return value of inhibition for input CN(C)CCOc1cc(NC(=O)Nc2ccc(Cl)cc2C(F)(F)F)ccc1I , no commentary.
Marked response: 5

Exam item: Return value of inhibition for input CC(C)CCN1CCC(Oc2ccc(NC(=O)c3ccc(F)cc3)cc2Cl)CC1 , no commentary.
Marked response: 4

Exam item: Return value of inhibition for input O=C(NCCCN1CCC(NC(=O)c2ccc(-c3cccnc3)cc2)CC1)c1ccc(Cl)c(Cl)c1 , no commentary.
Marked response: -5

Exam item: Return value of inhibition for input CN1C(C)(C)CC(NC(=O)c2ccc(-c3nc4ccc(Cl)cc4[nH]3)cc2)CC1(C)C , no commentary.
Marked response: -3

* * *

test: antimalarial activity against Dd2 strain (AID 2302);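 note: 0% = DMSO untreated growth and 100% = chloroquine plus artemisinin killed control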; settings: P. falciparum Dd2 in RBCs, LDH growth readout, 72 h; at 2 µM; stronger effect = higher value
The class of a record is decided solely by its measured growth inhibition; consult low bracket = under 40%, middle bracket = from 40% up to 80%, high bracket = 80% and over

1) NC(=O)C1Cc2ccccc2CN1CC(=O)Nc1ccccc1Sc1ccccc1 (stereo not given) ... high bracket
2) Cc1ccc(C(=O)NC2CCN(CCNC(=O)Nc3cc(C)nc4ccccc34)CC2)cc1 ... middle bracket
3) Clc1ccc2c(N3CCN(CCN4CCN(c5ccnc6cc(Cl)ccc56)CC4)CC3)ccnc2c1 ... high bracket

Now, please, on to the next compound.
Exam item: Tag the class for N#Cc1ccc(-c2ccc(C(=O)NCCCCN3CC=C(c4ccc5c(c4OCC4CC4)CCCC5)CC3)cc2)cc1
Marked response: high bracket

* * *

biological target: L-lactate dehydrogenase (Plasmodium falciparum (isolate CDC / Honduras)) (UniProt Q27743); assay: PfLDH activity inhibition – cell lysate, 3D7 strain, counter-screen for P. falciparum growth inhibition project (AID 2304);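 note: 0% = vehicle and 100% = reference inhibitor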; details: P. falciparum 3D7 crude extract, LDH APAD/NBT absorbance; at 2 µM; stronger effect = higher value
Catalogue of inhibition readings, one per entry.
Give the number; % is assumed, so skip it.

1) COc1cc(OC)c(NC(=O)Nc2ccnc3ccccc23)cc1Cl ... -2
2) CN(c1ccc(F)cc1)S(=O)(=O)c1ccc(Cl)c(C(=O)Nc2cccc(C#N)c2)c1 ... -4
3) Cc1ccc(NC(=O)c2cccc(CN3CCCN(Cc4cccc(O)c4)CC3)c2)cc1C ... 1

Exam item: Return value of inhibition for input Cc1ccc(NC(=O)c2ccc(CN3CCCN(Cc4cccc(O)c4)CC3)cc2)cc1 , no commentary.
Marked response: -5

Exam item: Return value of inhibition for input COc1cccc(C(=O)NC(NC(=S)Nc2ccc(OC)cc2[N+](=O)[O-])C(Cl)(Cl)Cl)c1 (stereo not given) , no commentary.
Marked response: -2

Exam item: Return value of inhibition for input c1cc(CN2CCC(CCN3CCCCC3)CC2)cc(-c2cccc(-c3nc4ccccc4[nH]3)c2)c1 , no commentary.
Marked response: -3

Exam item: Return value of inhibition for input Cn1ccnc1CCC(=O)Nc1ccc(Cl)cc1C(=O)Nc1ccc(Cl)cc1 , no commentary.
Marked response: 4

Exam item: Return value of inhibition for input Cc1noc(-c2ccc(O)cc2O)c1-c1ccc2c(c1)OCCCO2 , no commentary.
Marked response: -4

Exam item: Return value of inhibition for input CCCCc1cc(NCc2ccncc2)nc(Nc2cccc(OC)c2)n1 , no commentary.
Marked response: -5

Exam item: Return value of inhibition for input O=C(c1ccc([N+](=O)[O-])o1)N1CCN(c2ccccc2)CC1 , no commentary.
Marked response: 0

Exam item: Return value of inhibition for input CC(C)CNCc1cccc(-c2cccc(CNC3CCN(Cc4ccccc4)CC3)c2)c1 , no commentary.
Marked response: -2

Exam item: Return value of inhibition for input O=C(Nc1ccc(-c2cccc(-c3nc4ccc(C(F)(F)F)cc4[nH]3)c2)cc1)c1ccoc1 , no commentary.
Marked response: -9

Exam item: Return value of inhibition for input Cc1cc2nc(-c3ccc(C(=O)NCCCc4ccccc4)cc3)[nH]c2cc1C , no commentary.
Marked response: -2

Exam item: Return value of inhibition for input COc1cc(Cc2cnc(N)nc2N)ccc1Oc1ccc(N)cc1 , no commentary.
Marked response: 6

Exam item: Return value of inhibition for input CC(=O)N1CCN(c2ccc(NC(=O)c3oc(-c4ccccc4)nc3C(F)(F)F)cn2)CC1 , no commentary.
Marked response: -2

Recorded values, source PubChem BioAssay.
